- assay-procedure: Metabolic stability in mouse liver microsomes assessed as half life preincubated for 15 mins followed by NADPH addition and measured after 1 to 2 hrs by LC-MS/MS analysis
- Format: ADME, Microsome
- recorded-conditions: microsomes, time 75-135 min
// label = true (1) if t1/2 is not less than 80 min, otherwise false (0)

(Q) Say whether CN1CCC(Cc2cc(CNC3(c4ccc(F)cc4)CCCC3)ccc2Cl)CC1 shows t1/2 of 80 min or more.
(A) false (0)

(Q) Say whether CN1CC2(CC(Cc3cccc(CNC4(c5ccc(F)cc5)CCCC4)c3)C2)C1 shows t1/2 of 80 min or more.
(A) true (1)

(Q) Say whether CN1CC2(CC(Cc3cccc(CNC4(c5ccc(F)c(F)c5)CCCC4)c3)C2)C1 shows t1/2 of 80 min or more.
(A) false (0)

(Q) Say whether CN1CCC(Cc2cc(CNC3(c4ccc(F)cc4)CCCC3)ccc2F)CC1 shows t1/2 of 80 min or more.
(A) true (1)

(Q) Say whether CN1CCC(Cc2cccc(CNC3(c4ccc(F)cc4Cl)CCCC3)c2)CC1 shows t1/2 of 80 min or more.
(A) false (0)

###

- assay-procedure: Metabolic stability in dog liver microsomes assessed as half life preincubated for 15 mins followed by NADPH addition and measured after 1 to 2 hrs by LC-MS/MS analysis
- Format: ADME, Canis lupus familiaris, Microsome
- recorded-conditions: liver microsomes, time 75-135 min
Give measured half-life for each item. Keep answers brief.

(Q) half-life lookup needed for Fc1ccc(C2(NCc3cc(CC4CCNCC4)ccc3F)CCCC2)cc1 , thanks.
(A) > 1 h

(Q) half-life lookup needed for Fc1ccc(C2(NCc3ccc(F)c(CC4CCNCC4)c3)CCCC2)cc1 , thanks.
(A) > 1 h

###

Give measured remaining at 2 h for each item. Keep answers brief.
- assay-procedure: Metabolic stability in mouse liver microsomes assessed as parent compound remaining preincubated for 15 mins followed by NADPH addition and measured after 2 hrs by LC-MS/MS analysis
- Type: ADME, Microsome
- recorded-conditions: time 135 min, read-out: Stability
Field: value (include unit after the number)

(Q) remaining at 2 h lookup needed for CN1CCC(Cc2ccc(F)c(CNC3(c4ccc(F)cc4)CCCC3)c2)CC1 , thanks.
(A) 46%

(Q) remaining at 2 h lookup needed for CN1CCC(Cc2cc(CNC3(c4ccc(F)cc4)CCCC3)ccc2O)CC1 , thanks.
(A) 43%

(Q) remaining at 2 h lookup needed for COc1cc(F)ccc1C1(NCc2ccc(F)c(CC3CCN(C)CC3)c2)CCCC1 , thanks.
(A) 31%

(Q) remaining at 2 h lookup needed for CN1CCC(Cc2cccc(CNC3(c4ccc(F)cc4F)CCCC3)c2)CC1 , thanks.
(A) 5%

(Q) remaining at 2 h lookup needed for CN1CCC(Cc2cccc(CNC3(c4ccc(F)c(O)c4)CCCC3)c2)CC1 , thanks.
(A) 63%

(Q) remaining at 2 h lookup needed for CN1CCC(Cc2cc(CNC3(c4ccc(F)cc4)CCCC3)c(F)cc2F)CC1 , thanks.
(A) 34%

(Q) remaining at 2 h lookup needed for CN1CCC(Cc2cccc(CNC3(c4ccc(F)cc4O)CCCC3)c2)CC1 , thanks.
(A) 13%

(Q) remaining at 2 h lookup needed for COc1cc(C2(NCc3cccc(CC4CCN(C)CC4)c3)CCCC2)ccc1F , thanks.
(A) 40%

(Q) remaining at 2 h lookup needed for CN1CCC(Cc2cccc(CNC3(c4ccc(F)cc4)CCCC3)c2)CC1 , thanks.
(A) 39%

(Q) remaining at 2 h lookup needed for CN1CC2(CC(Cc3cccc(CNC4(c5ccc(F)cc5)CCCC4)c3)C2)C1 , thanks.
(A) 49%

(Q) remaining at 2 h lookup needed for Fc1ccc(C2(NCc3cc(CC4CCNCC4)ccc3F)CCCC2)cc1 , thanks.
(A) 74%

(Q) remaining at 2 h lookup needed for CN1CCC(Cc2cccc(CNC3(c4ccc(F)c(F)c4)CCCC3)c2)CC1 , thanks.
(A) 31%

(Q) remaining at 2 h lookup needed for CN1CCC(Cc2cc(CNC3(c4ccc(F)cc4)CCCC3)ccc2F)CC1 , thanks.
(A) 39%

(Q) remaining at 2 h lookup needed for COc1cc(F)ccc1C1(NCc2cccc(CC3CCN(C)CC3)c2)CCCC1 , thanks.
(A) 42%

(Q) remaining at 2 h lookup needed for Fc1ccc(C2(NCc3cccc(CC4CCNCC4)c3)CCCC2)cc1 , thanks.
(A) 71%

(Q) remaining at 2 h lookup needed for Fc1ccc(C2(NCc3ccc(F)c(CC4CCNCC4)c3)CCCC2)cc1 , thanks.
(A) 72%

(Q) remaining at 2 h lookup needed for CN1CC2(CC(Cc3cccc(CNC4(c5ccc(F)c(F)c5)CCCC4)c3)C2)C1 , thanks.
(A) 32%

(Q) remaining at 2 h lookup needed for CN1CCC(Cc2cc(CNC3(c4ccc(F)c(F)c4)CCCC3)ccc2F)CC1 , thanks.
(A) 21%

(Q) remaining at 2 h lookup needed for CN1CCC(Cc2cc(CNC3(c4ccc(F)cc4)CCCC3)ccc2Cl)CC1 , thanks.
(A) 29%

###

- Tested on: BT-474
- assay-procedure: Cytotoxicity against human BT-474 cells
- Format: functional
attribute-measured: CC50 (µM)
Note: unit µM is implicit; provide only the numeric part.

(Q) Test system BT-474; read-out CC50; what value for CN1CCC(Cc2cccc(CNC3(c4ccc(F)cc4)CCCC3)c2)CC1 ?
(A) 5.93

(Q) Test system BT-474; read-out CC50; what value for CN1CCC(Cc2cccc(CNC3(c4ccc(F)c(F)c4)CCCC3)c2)CC1 ?
(A) 5.1

(Q) Test system BT-474; read-out CC50; what value for CN1CCC(Cc2cccc(CNC3(c4ccc(F)cc4Cl)CCCC3)c2)CC1 ?
(A) 4.25

(Q) Test system BT-474; read-out CC50; what value for COc1cc(F)ccc1C1(NCc2cccc(CC3CCN(C)CC3)c2)CCCC1 ?
(A) 6.99

(Q) Test system BT-474; read-out CC50; what value for CN1CCC(Cc2cccc(CNC3(c4ccc(F)cc4)CCCC3)c2)C(F)(F)C1 (racemic) ?
(A) 21.9

(Q) Test system BT-474; read-out CC50; what value for CN1CC(Cc2cccc(CNC3(c4ccc(F)cc4)CCCC3)c2)C1 ?
(A) 13.4

(Q) Test system BT-474; read-out CC50; what value for CN1CCC(Cc2cc(CNC3(c4ccc(F)cc4)CCCC3)ccc2Cl)CC1 ?
(A) 2.34

(Q) Test system BT-474; read-out CC50; what value for CN1CCC(Cc2cccc(CNC3(c4ccc(F)c(O)c4)CCCC3)c2)CC1 ?
(A) 11.7

(Q) Test system BT-474; read-out CC50; what value for CN1CCC(Cc2cccc(CNC3(c4ccc(F)cc4F)CCCC3)c2)CC1 ?
(A) 7.83

(Q) Test system BT-474; read-out CC50; what value for CN1CCC(Cc2ccc(F)c(CNC3(c4ccc(F)cc4)CCCC3)c2)CC1 ?
(A) 5.45

(Q) Test system BT-474; read-out CC50; what value for Fc1ccc(C2(NCc3cccc(CC4CCNCC4)c3)CCCC2)cc1 ?
(A) 2.74

(Q) Test system BT-474; read-out CC50; what value for COc1cc(C2(NCc3cccc(CC4CCN(C)CC4)c3)CCCC2)ccc1F ?
(A) 3.65

(Q) Test system BT-474; read-out CC50; what value for Fc1ccc(C2(NCc3cc(CC4CCNCC4)ccc3F)CCCC2)cc1 ?
(A) 2.29

(Q) Test system BT-474; read-out CC50; what value for CN1CCC(Cc2cc(CNC3(c4ccc(F)c(F)c4)CCCC3)ccc2F)CC1 ?
(A) 3.52

(Q) Test system BT-474; read-out CC50; what value for CN1CCC(Cc2ccc(O)c(CNC3(c4ccc(F)cc4)CCCC3)c2)CC1 ?
(A) 7.03

(Q) Test system BT-474; read-out CC50; what value for CN1CCC(Cc2cccc(CNC3(c4ccc(F)c(Cl)c4)CCCC3)c2)CC1 ?
(A) 3.61

(Q) Test system BT-474; read-out CC50; what value for Fc1ccc(C2(NCc3ccc(F)c(CC4CCNCC4)c3)CCCC2)cc1 ?
(A) 2.31

(Q) Test system BT-474; read-out CC50; what value for CN1CCC(Cc2cc(CNC3(c4ccc(F)cc4)CCCC3)c(F)cc2F)CC1 ?
(A) 3.11

(Q) Test system BT-474; read-out CC50; what value for CN1CCC(Cc2cc(CNC3(c4ccc(F)cc4)CCCC3)ccc2F)CC1 ?
(A) 5.89

(Q) Test system BT-474; read-out CC50; what value for CN1CCC(Cc2cccc(CNC3(c4ccc(F)cc4)CCCC3)c2)CC1(C)C (racemic) ?
(A) 6.46

(Q) Test system BT-474; read-out CC50; what value for CN1CC2(CC(Cc3cccc(CNC4(c5ccc(F)cc5)CCCC4)c3)C2)C1 ?
(A) 4.83

(Q) Test system BT-474; read-out CC50; what value for CN1CC2(CC(Cc3cccc(CNC4(c5ccc(F)c(F)c5)CCCC4)c3)C2)C1 ?
(A) 2.99

(Q) Test system BT-474; read-out CC50; what value for COc1cc(F)ccc1C1(NCc2ccc(F)c(CC3CCN(C)CC3)c2)CCCC1 ?
(A) 6.88

(Q) Test system BT-474; read-out CC50; what value for CN1CCC(Cc2cc(CNC3(c4ccc(F)cc4)CCCC3)ccc2O)CC1 ?
(A) 5.1
